- PROCEDURE_DETAILS: yeast display, Sf9 membrane polyspecificity reagent, FACS + sequencing; frameworks hold sequencing errors

BIOPOLYMER_SEQUENCE: QVQLVESGGGLVQAGGSLRLSCAASGRIFGANAMGWYRQAPGKERELVAVITGGGGTYYADSVKGRFTISRDNAKNTVYLQMNRLKPEETAVYYCDWPRYYYTYPSHPMDYWGQGTQVTVSS
polyreactivity (PSR sort gate): low polyreactivity
//
BIOPOLYMER_SEQUENCE: QVHLVESGGGLVQAGGSLSLSCDASGYIISSYVMGWYRQAPGKERELVAAISRRGGSTYYADSVKGRFTISRDNAKNTVYLQMNSLIPEDTAVYYCAADGLSGYGSGRYYGMGYCGQGTQVTVSS
polyreactivity (PSR sort gate): high polyreactivity
//
BIOPOLYMER_SEQUENCE: QVQLVESGAGLVQAGGSLRLSFAASGRTFVSYDMGWYRQATGKERELVAAITYSGGSSTYYADSVKGRFTISRDNAKNTVYLQMNSLKPEDTAVYYCAVYGGGSRNFGDVGYWGQGTLVTVSS
polyreactivity (PSR sort gate): low polyreactivity
//
BIOPOLYMER_SEQUENCE: QVQLVESGGGLVQAGGSLRLSCAASGRTFVLYAMGWYRQAPGKERELVASITSGGSTNYADSVKGRFTISRDNAKNTVYLQMNSLKPEDTAVYYCNADLDVYLWFIFTVYQDDYDYWGQGTQVTVSS
polyreactivity (PSR sort gate): high polyreactivity
//
BIOPOLYMER_SEQUENCE: QVQLVESGGGLVQPGGSLRLSCAASGSIFAYNAMGWSRQAPGKERELVAAISSGGRTKYADSVKGRFTITRDNAKITVYFQMNRQKPEDTAVYYCAAESYTGKYSWVWKWYDYWGQGTQVSVSS
polyreactivity (PSR sort gate): low polyreactivity
//
BIOPOLYMER_SEQUENCE: QVQLVESGGGLVQAGGSLRLSCAASGSIFGRYAMGWYRQAPGKERELVAAISWRGGSTYYADSVKGRFTISRDNAKNTVYLQMNSLKPEDTAVYYCNVPYRSGYSHRYDYWGQGTQVTVSS
polyreactivity (PSR sort gate): high polyreactivity
//
BIOPOLYMER_SEQUENCE: QVQLVESGGGLVQAGGSLRLSCAASGFIFYSYAMGWYRQAPGKERELVAAIDWDDGTTYYADSVKGRFTISRDNAKNTVYLQMNSLKPEDTAVYYCAAESYYGAYDYWGQGTQVTVSS
polyreactivity (PSR sort gate): high polyreactivity
//
BIOPOLYMER_SEQUENCE: QVQLVESGGGLVQAGGSLRLSCAASGRIFDDNAMGWYRQAHGKERELVATISSTGGRTYYADSVKGRFTISRDNAKKTVYLQMNSLKPEDTAVYYCAARRLQGGYYYWGQGTQVTVSS
polyreactivity (PSR sort gate): high polyreactivity
//
BIOPOLYMER_SEQUENCE: QVQLVESGGGLVQAGGSLRLSCAASGSTFWFYTMGWYRQAPGKERELVATITSGGSTNYADSVKGRFTISRDNAKNTVYLQMNSLKPEDTAVYYCAASSVLTNHDYWGQGTQVTVSS
polyreactivity (PSR sort gate): low polyreactivity
//
BIOPOLYMER_SEQUENCE: QVQLVESGGGLVQAGGSLRLSCAASGSTLTWNAMGWYRQAPGKERELVATISYSGSSTYYADSVKGRFTISRDNAKNSVYLQMFSLKPEDTAGYYCNAQELAYGHGFDSWGLGTQVTVSS
polyreactivity (PSR sort gate): low polyreactivity
//
BIOPOLYMER_SEQUENCE: QVQLVESGGGLVQAGGSLRISCAASGSIFRGNAMGWYRQAPGKERELVAAISKSGGSTYYADSVKGRITISRDNAKNTVYLQMNSLKPEDTAVYYCAARTTYLYGMYYWGQGTQVTVSS
polyreactivity (PSR sort gate): low polyreactivity
//
BIOPOLYMER_SEQUENCE: QVQLVESGGGLVQAGGSLRLSCAASGRIFLFYAMGWYRQAPGKERELVAAISIGSTDYADSVKGRFTISRDNAKNTVYLQMNSLKPEDTAVYYCAADFIITYDEYDYWGQGTQVTVSS
polyreactivity (PSR sort gate): high polyreactivity
//
BIOPOLYMER_SEQUENCE: QVQLVESGGGLVQAGGSLRLSCAASGSIFQGYAMGWYRKAPGKERELVAAITSSGGSTRYADSVKGRFTISRDNAKNTVYLQMNSLKPEDTAVYYCAARYKWPYDYWGQGTQVTVSS
polyreactivity (PSR sort gate): high polyreactivity
//
BIOPOLYMER_SEQUENCE: QVQLQESGGLVQAGGLRLSCAASGSVSYQEAMGWYRQAPGKERELVATISFGANTNYADSVKGRFTISRDNAKNTVYLHMNSRKPEDTAVYYCAAESLFDDYYGYWGQGTQVTVSS
polyreactivity (PSR sort gate): low polyreactivity
//
BIOPOLYMER_SEQUENCE: QVQLVESGGGLVQAGGSLRLSCAASGFTLGNYAMGWYRQAPGKERELVAVITSGGRTYYADSVKGRFTISRDNAKNTVYLQMNSLKPEDTAVYYCNTKVYYYYRAVVDFDYWGQGTQVTVSS
polyreactivity (PSR sort gate): low polyreactivity
//
BIOPOLYMER_SEQUENCE: QVQLVESGGGLVQAGGSLRLSCAASGRTFSRNAMGWYRQAPGKERELVAAITYSGGTTYYADSVKGRFTISRDNAKNTVYLQMNSLKPEDTAVYYCATPSRKSGVGYPSYNYWGQGTQVTVSS
polyreactivity (PSR sort gate): high polyreactivity
//
BIOPOLYMER_SEQUENCE: QVQLVESGGGLVHAGGSLRLSCAASGSTFFPYDMGWYRPEPGTERYFVAGISSDGGTSYADSVKGRFTISRDNAKNTVYLQMNSMKPEDTAVYDCAALQADGDRYPEFDLMDYWGQGSQVTVSS
polyreactivity (PSR sort gate): low polyreactivity
//
BIOPOLYMER_SEQUENCE: QVQLVESGGGLVQAGGSLRLSCAASGRIFTRNTMGWYRQAPGKERELVAAITSRGGSTYYADSVKGRFTISRDNAKNTVYLQMNSLKPEDTAVYYCAADKPRSYYYWGQGTQVTVSS
polyreactivity (PSR sort gate): high polyreactivity
//
BIOPOLYMER_SEQUENCE: QVQLVESGGGLVQAGGSLRLSCAASGSIFYPYAMGWYRQANGKERELDAAITWRGGRTYYADSVKGRFTISRDNAKNTVYLQMNSLKPEDTAVYYCAAGWLTRSYEYDYWGQGTQVTVSS
polyreactivity (PSR sort gate): high polyreactivity
//
BIOPOLYMER_SEQUENCE: QVQLVESGAGIVQAGGSLRLSCAASGRTFLDYTMGWYRQAPGKERELVAAIRTSAGSTYYADSVKGRFTISRDNAKKTVYLQLNSLKPEDTAVYYCAAVYYVHYYYSYDYWGQGTQVTVSS
polyreactivity (PSR sort gate): low polyreactivity
//
BIOPOLYMER_SEQUENCE: QVQLVESGGGLVQAGGSLRLSCAASGLIFHQYAMGWYRQAPGKERELVAAITRSGTRTYYADSVKGRFTISRDNAKNTVYLQMNSLKPEDTAVYYCAAGDTQGVSMDYWGQGTQVNVSS
polyreactivity (PSR sort gate): high polyreactivity
